Assay: Half life in Sprague-Dawley rat at 0.4 mg/kg,iv measured upto 24 hrs by LC-MS/MS analysis
Assay type: ADME, organism-based
Conditions: in vivo
In this section, each of the molecules is paired with its reported half-life.
Response body: numeric value in h, unit text excluded.

Molecule | half-life (h)
CC(C)C[C@H](NC(=O)C(NC(=O)c1cc(C(F)(F)F)ccc1C(F)(F)F)C1CC1)B1OC2C3OC(CC3C(=O)O)C2(C)O1 (some centres not stated) | 24.1

Here's the next entry for you.
Query string: # get_value(readout='half-life', item= CC(C)C[C@H](NC(=O)C(CC1CC1)NC(=O)c1cc(C(F)(F)F)ccc1C(F)(F)F)B1OC2C3OC(CC3C(=O)O)C2(C)O1 (some centres not stated) )
Result string: 24.1

====

Molecular target: 20S proteasome
Assay: Inhibition of human 20S proteasome chymotrypsin-like activity using Suc-Leu-Leu-Val-Tyr-AMC as fluorogenic peptide pre-incubated for 10 mins with compound followed by substrate addition for 60 mins by spectrofluorimetric analysis
pIC50: −log10 of the molar value.
So basically: pIC50 at 8 or higher? That is criterion met. Lower than 8? That is criterion not met.

Query string: I'd appreciate it if you could say whether `CC(C)C[C@H](NC(=O)CNC(=O)c1cc(Br)ccc1Br)B(O)O` has pIC50 at least equal to 8.
Result string: criterion met

Query string: Continue with CC(C)C[C@H](NC(=O)CNC(=O)c1cc(Cl)ccc1Cl)B1OC2C3OC(C4C(=O)NC(=O)C34)C2(C)O1 (stereo partly drawn)
Result string: criterion not met

Query string: CC(C)C[C@H](NC(=O)C(NC(=O)c1cc(C(F)(F)F)ccc1C(F)(F)F)C1CC1)B1OC2C3OC(CC3C(=O)O)C2(C)O1 (stereo partly drawn) ?
Result string: criterion met

====

Experiment: AUC(0-t) in Sprague-Dawley rat at 1.2 mg/kg,IG measured upto 24 hrs by LC-MS/MS analysis
Format: ADME, organism-based
Set-up: dose 1.2 mg/kg, time < 24 hrs, route ig
Details: in vivo, po
We begin with a simple list: items and their reported AUC(0-t) at 24 h.
Reply numerically in ng·h/mL, unit not repeated.

Molecule | Unit descriptor | Measured result
CC(C)C[C@H](NC(=O)C(NC(=O)c1cc(C(F)(F)F)ccc1C(F)(F)F)C1CC1)B1OC2C3OC(CC3C(=O)O)C2(C)O1 (some centres not stated) | ng·h/mL | 126

Lab note: next molecule to report on.
Query string: Fill blank: measured AUC(0-t) at 24 h of the molecule CC(C)C[C@H](NC(=O)C(CC1CC1)NC(=O)c1cc(C(F)(F)F)ccc1C(F)(F)F)B1OC2C3OC(CC3C(=O)O)C2(C)O1 (some centres not stated) is ____.
Result string: 2680

====

The entries below are paired with their reported half-life at 1 µM.
Assay: Half life in monkey liver microsomes at 1 uM incubated for 2 to 60 mins in presence of NADPH by LC-MS/MS analysis
Format: ADME, Macaca mulatta, Microsome
Conditions: rhesus monkey, time 2-60 min
Please state the figure in min; there is no need to write the unit.

Compound | Measurement name | Measured result
CC(C)C[C@H](NC(=O)C(NC(=O)c1cc(C(F)(F)F)ccc1C(F)(F)F)C1CC1)B1OC2C3OC(CC3C(=O)O)C2(C)O1 (some centres not stated) | half-life at 1 µM | 38.9

# ---- query compound ----
Query string: Given the entry CC(C)C[C@H](NC(=O)C(CC1CC1)NC(=O)c1cc(C(F)(F)F)ccc1C(F)(F)F)B1OC2C3OC(CC3C(=O)O)C2(C)O1 (some centres not stated) , report its measured half-life at 1 µM.
Result string: 8.8
